Hi! I'm sharing some IC50 results obtained with AChE from electric eel (Electrophorus electricus, UniProt O42275).
Sequence (O42275 24-633): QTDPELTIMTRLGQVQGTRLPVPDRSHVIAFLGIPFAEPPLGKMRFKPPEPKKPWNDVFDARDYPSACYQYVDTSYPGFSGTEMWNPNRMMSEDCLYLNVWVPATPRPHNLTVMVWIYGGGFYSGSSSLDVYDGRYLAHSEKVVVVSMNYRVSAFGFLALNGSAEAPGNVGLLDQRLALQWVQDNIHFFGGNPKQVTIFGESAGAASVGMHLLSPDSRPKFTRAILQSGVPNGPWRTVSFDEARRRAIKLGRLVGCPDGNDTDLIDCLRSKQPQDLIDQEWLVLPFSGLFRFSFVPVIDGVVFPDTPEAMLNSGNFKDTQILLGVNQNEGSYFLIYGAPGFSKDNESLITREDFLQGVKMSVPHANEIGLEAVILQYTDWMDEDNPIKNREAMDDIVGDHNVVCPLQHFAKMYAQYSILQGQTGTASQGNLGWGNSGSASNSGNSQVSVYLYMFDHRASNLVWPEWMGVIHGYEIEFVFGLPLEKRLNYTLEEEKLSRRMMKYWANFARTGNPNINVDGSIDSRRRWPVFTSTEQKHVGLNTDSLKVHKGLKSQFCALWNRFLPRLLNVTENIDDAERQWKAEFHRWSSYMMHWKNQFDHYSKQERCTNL
# output: bare number, implied unit µM

[[record]]
line_notation = "COc1ccc2cc(-c3ccc(O)cc3)c(=O)oc2c1"
test_system = "AChE from electric eel (Electrophorus electricus, UniProt O42275)"
observed_measurement = 42.4


Next up:
Looking up O=c1oc2ccccc2cc1-c1ccc(O)cc1 , I found its IC50 recorded as 78.5

----------
# test-system: BuChE from horse serum (Equus caballus, UniProt P81908)
# Sequence (P81908 whole entry): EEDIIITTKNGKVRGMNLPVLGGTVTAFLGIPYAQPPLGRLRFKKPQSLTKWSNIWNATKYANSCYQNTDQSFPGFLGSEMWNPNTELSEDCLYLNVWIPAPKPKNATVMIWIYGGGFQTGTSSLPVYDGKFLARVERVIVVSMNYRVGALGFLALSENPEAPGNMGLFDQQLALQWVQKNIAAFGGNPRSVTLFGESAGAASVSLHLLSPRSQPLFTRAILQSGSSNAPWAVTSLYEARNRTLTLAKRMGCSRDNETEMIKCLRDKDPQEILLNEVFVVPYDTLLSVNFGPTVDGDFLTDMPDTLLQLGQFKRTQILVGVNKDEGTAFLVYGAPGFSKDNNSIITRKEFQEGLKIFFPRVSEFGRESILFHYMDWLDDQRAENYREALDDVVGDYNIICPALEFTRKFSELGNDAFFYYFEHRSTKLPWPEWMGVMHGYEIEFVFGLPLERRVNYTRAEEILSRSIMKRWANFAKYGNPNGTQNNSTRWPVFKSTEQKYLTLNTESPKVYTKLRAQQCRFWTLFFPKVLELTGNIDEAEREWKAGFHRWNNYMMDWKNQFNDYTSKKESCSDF
# run-parameters: read-out: IC50 value BuChE inhibitory activity; BuChE from horse serum; mean ± SD (n = 3)
In plain terms, low IC50, meaning strictly below 40 µM, gives rule met, and everything else gives rule not met.

The following compounds have reported results that may help.
[[record]]
compound = "COc1ccc2cc(-c3ccc(O)cc3)c(=O)oc2c1 [Compound 13]"
test_system = "BuChE from horse serum (Equus caballus, UniProt P81908)"
class_name = "rule not met"

[[record]]
compound = "O=c1oc2cc(O)ccc2cc1-c1ccccc1 [Compound 5]"
test_system = "BuChE from horse serum (Equus caballus, UniProt P81908)"
class_name = "rule met"

[[record]]
compound = "O=c1oc2ccccc2cc1-c1ccc(O)cc1 [Compound 1]"
test_system = "BuChE from horse serum (Equus caballus, UniProt P81908)"
class_name = "rule not met"

[[record]]
compound = "COc1ccc(-c2cc3ccc(O)cc3oc2=O)cc1 [Compound 9]"
test_system = "BuChE from horse serum (Equus caballus, UniProt P81908)"
class_name = "rule met"


Task item: hey, is IC50 for O=c1oc2cc(O)ccc2cc1-c1ccc(O)cc1 [Compound 4] lower than 40 µM or not?
Reply: rule met

----------
Lab note: IC50 readings collected with MAO-B (Rattus norvegicus) for the following molecules.
Sequence (P19643 whole entry): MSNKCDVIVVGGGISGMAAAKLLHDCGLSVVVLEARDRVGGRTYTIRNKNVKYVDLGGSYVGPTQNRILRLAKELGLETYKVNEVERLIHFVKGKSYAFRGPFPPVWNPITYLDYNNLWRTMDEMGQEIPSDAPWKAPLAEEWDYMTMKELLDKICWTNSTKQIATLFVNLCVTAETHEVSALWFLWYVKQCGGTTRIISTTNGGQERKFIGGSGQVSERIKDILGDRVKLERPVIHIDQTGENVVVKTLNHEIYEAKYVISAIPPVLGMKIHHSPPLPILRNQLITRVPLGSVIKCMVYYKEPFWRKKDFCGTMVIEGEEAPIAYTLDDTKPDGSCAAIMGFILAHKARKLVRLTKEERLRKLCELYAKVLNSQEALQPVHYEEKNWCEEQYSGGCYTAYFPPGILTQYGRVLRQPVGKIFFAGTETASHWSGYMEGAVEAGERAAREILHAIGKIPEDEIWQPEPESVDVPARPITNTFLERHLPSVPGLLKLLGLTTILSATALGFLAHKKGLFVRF

Sample records with IC50:
[[record]]
line_notation = "O=c1oc2ccccc2cc1-c1ccc(O)cc1"
test_system = "MAO-B (Rattus norvegicus)"
readout_type = "IC50"
observed_measurement = "> 700 µM"

[[record]]
line_notation = "COc1ccc(-c2cc3ccc(O)cc3oc2=O)cc1"
test_system = "MAO-B (Rattus norvegicus)"
readout_type = "IC50"
observed_measurement = "> 700 µM"

[[record]]
line_notation = "COc1ccc2cc(-c3ccc(O)cc3)c(=O)oc2c1"
test_system = "MAO-B (Rattus norvegicus)"
readout_type = "IC50"
observed_measurement = "> 700 µM"


O=c1oc2cc(O)ccc2cc1-c1ccccc1 on MAO-B (Rattus norvegicus) gives IC50 = > 700 µM

Lab note: molecule O=c1oc2cc(O)ccc2cc1-c1ccc(O)cc1 tested on MAO-B (Rattus norvegicus); recorded IC50 was > 700 µM
